experiment notes: Screening of
Format: in vivo, CD-1 mice
measurement conditions: male mice, 50 mg/kg, three timepoints
Given measured Relative BA (plasma AUClast p.o. / i.p.), output True if it is greater than or equal to 30% and False if not.

[[record]]
compound = "N[C@@]1(c2ccccc2Cl)CCC[C@@H](OC(=O)c2ccccc2)C1=O"
qualitative_label = "True"

[[record]]
compound = "N[C@@]1(c2ccccc2Cl)CCC[C@@H](O)C1=O [(2R,6R)-HNK, (2R,6R)-hydroxynorketamine]"
qualitative_label = "True"

[[record]]
compound = "CCCCCCCC(=O)O[C@@H]1CCC[C@@](N)(c2ccccc2Cl)C1=O"
qualitative_label = "False"

[[record]]
compound = "CCCCC(=O)O[C@@H]1CCC[C@@](N)(c2ccccc2Cl)C1=O"
qualitative_label = "False"


Now turn to the next compound.
Quick check: does CC(=O)O[C@@H]1CCC[C@@](N)(c2ccccc2Cl)C1=O have Relative BA (plasma AUClast p.o. / i.p.) greater than or equal to 30%?
False
